# System: RXF 393 renal
# assay-details: NCI tumour cell line growth inhibition, 48 h
Assignment: determine reported TGI for the given compounds.

Sample CCC(CO)Nc1nc2c(c(=O)n(C)c(=O)n2C)n1CCO (stereo unspecified) ; TGI observed: > 100 µM

The recorded TGI for entry CCc1nc2c(c(N(C)C)c1C(=O)OC)CCc1ccccc1-2 equals 73.8 µM

Lab book: TGI of CN1CCN(CCCOc2cc(O)c3c(=O)cc(-c4ccccc4)oc3c2)CC1 noted as 84 µM

Notebook: O=C[C@@H](CO)O[C@H](C=O)n1cnc2c(=O)[nH]cnc21 , TGI read as 1470 µM

Memo: CNC(=O)c1cncc(/C=C/c2ccccc2Cl)c1 , reported TGI: > 25 µM

O=C(c1ccc([N+](=O)[O-])cc1)N1CCCC1 yielded TGI of > 100 µM

The compound CC1=NOC(=O)/C1=C/c1ccc2c(c1)OCO2 showed TGI equal to 30.7 µM

Query NC(=O)NN=C1Cc2ccccc2C1 yields TGI of > 100 µM

Notebook: CC(C)c1ccc(NC(=O)Cc2ccc(Nc3ncnc4cc(-c5cnn(CCN(C)C)c5)ccc34)cc2)cc1 , TGI read as 3.43 µM

// field: TGI; key: Clc1ccc(/C(=C/c2ccccc2)Cn2ccnc2)cc1 ; value = 50.7 µM

Sure, the documented TGI for CCCCn1c(=O)c(/C=C/C(=O)/C=C/c2cc3ccccc3n(CCCC)c2=O)cc2ccccc21 is 3.32 µM

Reported TGI for O=c1c2cc3ccccc3n2c(=O)c2cc3ccccc3n12 was > 100 µM

# TGI (compound: CC1=C(C(=O)OCCO[N+](=O)[O-])C(c2ccccc2[N+](=O)[O-])C(C(=O)OC(C)C)=C(C)N1 (stereo unspecified) ) is 30.3 µM

Record O=C1Nc2cc(F)ccc2C1=O , field TGI: > 100 µM

// sample Cc1ccc(C)c(COCCOCn2cc(N3CCOCC3)c(=O)[nH]c2=O)c1 , its TGI was > 100 µM

Noted for COc1cc(/C=N/N=C(\N)NO)c([N+](=O)[O-])cc1OC : its TGI reads 65.2 µM

Reported TGI of CC(=O)/C(=N\Nc1ccc(Cl)cc1)C(C)=Nc1ccc(C)cc1 : 95.8 µM

Lookup result for CC(=O)Oc1ccc2c(-c3ccccc3)c(Oc3ccc(Cl)cc3)c(=O)oc2c1 ; measured TGI: 33.2 µM

Item: O=C(O)c1ccc(SSc2ccc(C(=O)O)cn2)nc1 | TGI: > 100 µM

Record summary for O/N=C/c1ccc(O)c(O)c1 : reported TGI = > 100 µM

So, O=P(O)(O)OCC1OC(n2cnc3c(NCc4ccccc4)ncnc32)C(O)C1O (stereo unspecified) ? Its TGI was 13.8 µM

====

# System: OVCAR-4 ovarian
# assay-details: NCI tumour cell line growth inhibition, 48 h
measure: TGI

TGI measured on COc1ccc2nc3cc(Cl)ccc3c(Nc3cc(CN4CCCC4)c(O)c(CN4CCCC4)c3)c2n1 = 4.72 µM

Reported TGI of CC(=O)NN1C(=O)C(Cc2ccccc2)c2ccccc21 (configuration not stated) : > 100 µM

Looking up C[C@H]1C=C2C(=O)O[C@H]3CC[C@@H](C1)[C@@]23O , I found its TGI recorded as 24.4 µM

Note to self: TGI recorded for Cc1cccc2c1CC(Cc1ccccc1C(=O)O)C2=O (configuration not stated) was > 100 µM

Per the records, this molecule ( CCOC(=O)c1c(-c2ccccc2)c(OC)cn1C ) has TGI equal to > 10 µM

Field TGI (entry C=C1C[C@@H]2C[C@@H](C)CC(O)[C@]2(CCCN)C1O (some centres not stated) ) reads > 100 µM

Short answer for CN(C)CCNCCCNc1c2ccccc2nc2cccc([N+](=O)[O-])c12 : TGI was 0.0208 µM

Entry CC[C@H](C)[C@H](NC(=O)c1cccn1C)C(=O)N(C)[C@H](C[C@@H](OC(C)=O)c1nc(C(=O)N[C@@H](Cc2ccccc2)C[C@H](C)C(=O)OC)cs1)C(C)C ; TGI = > 33.3 µM

Memo: CC1=NN2C(=N)/C(=C/c3ccc(F)cc3)C(=O)N=C2S1 , reported TGI: > 100 µM

Recorded result, Cc1nc2c(=O)n(-c3ccccc3)c(=O)n(-c3ccccc3)c2o1 , TGI: > 100 µM

Documented TGI of CCOC(=O)C(NC(=O)c1cccc(Cl)c1)(Nc1cccc(C)c1)C(F)(F)F (configuration not stated) : 62.8 µM

Entry CSc1nc(=O)c2nc(-c3cccs3)c(-c3cccs3)nc2n1C , TGI reported as > 100 µM

The reported value for CCCCn1c(=O)c(/C=C/C(=O)/C=C/c2cc3ccccc3n(CCCC)c2=O)cc2ccccc21 in terms of TGI is 9.12 µM

// recorded TGI for CC(=O)Oc1ccc2c(-c3ccccc3)c(Oc3ccc(Cl)cc3)c(=O)oc2c1 : 35.8 µM

The molecule listed as O=C1c2cc3c(cc2CC12Cc1ccc4c(c1C2=O)CCC4)CCC3 (configuration not stated) has a reported TGI of > 100 µM

TGI reported for this molecule C=C(C)[C@H]1CC23C(=O)[C@@](C)(C[C@H]2C1(C)C)C(=O)C(C(=O)C(C)C)=C3O : 34.9 µM

In plain terms, O=C1CC[C@@]23CC(=O)O[C@@H]2CCCC3C1 (some centres not stated) has a documented TGI of > 100 µM

Memo: c1cncc(CSc2nc3ccccc3nc2-c2cccs2)c1 , reported TGI: > 100 µM

What the record says about Cc1cn(S(=O)(=O)c2ccccc2)c2c(OCc3ccccc3)cc(NC(=O)c3cc4cc([N+](=O)[O-])ccc4s3)cc12 : TGI is > 100 µM

Lab book: TGI of O=C(Nc1nn(C(=O)c2cccnc2)c(=O)s1)c1ccc(Cl)cc1 noted as > 100 µM

The molecule listed as C=C(C)[C@@H]1CC[C@]2(C(=O)NS(=O)(=O)c3ccccc3)CC[C@]3(C)[C@H](CC[C@@H]4[C@@]5(C)CC[C@H](OC(=O)NS(=O)(=O)c6ccccc6)C(C)(C)[C@@H]5CC[C@]43C)[C@@H]12 shows TGI equal to 51.4 µM

Reported TGI ( c1ccc2c(c1)cc1ccc3cccc4ccc2c1c34 ) = > 100 µM

====

# Test system: HL-60(TB) leukemia
# assay-details: NCI tumour cell line growth inhibition, 48 h
I'd be grateful if you could share measured TGI for these entries.

Per the records, this molecule ( COCCNc1cncc(C(N)=O)c1 ) has TGI equal to > 100 µM

Record COc1ccc(OC(C)C(=O)O)c2c(=O)ccccc12 (stereo not given) , field TGI: > 100 µM

Entry Cc1ccc(C)c(COCCOCn2cc(N3CCOCC3)c(=O)[nH]c2=O)c1 ; TGI = > 100 µM

Sample COC(=O)[C@H](Cc1cn(C)cn1)NC(=O)[C@H](Cc1ccccc1)NC(=O)Nc1cc(C(F)(F)F)cc(C(F)(F)F)c1 ; TGI observed: 32.7 µM

Lab note: CN(C)CCCNC(=O)N/N=C/c1ccccc1 gave TGI of > 100 µM

====

# System: NCI-H226 lung
# assay-details: NCI tumour cell line growth inhibition, 48 h
measure: TGI

# TGI of O=c1c2cc([N+](=O)[O-])ccc2oc2nc3n(c(=O)c12)CCCS3 = > 100 µM

Lab note: CC1=CCCC2C(C=O)(C1)CC(C)C2(CO)CC/C(=C/CO)CO (stereo not given) gave TGI of > 100 µM

Entry CC(=O)Oc1ccc2c(c1)C(=O)c1nc(C)c(C)nc1C2=O ; TGI = > 100 µM

Sample CC[C@H](NC(=O)OC(C)(C)C)C(=O)NCP(=O)(OCc1ccc([N+](=O)[O-])cc1)OCc1ccc([N+](=O)[O-])cc1 ; TGI observed: > 100 µM

Entry CN1c2ccccc2C2=C(c3ccccc3)CC[C@@H](C(=O)N3C4CC5CC[C@@]4(CS3(=O)=O)C5(C)C)[C@@H]21 (stereo not given in full) — recorded TGI = > 100 µM

Note to self: TGI recorded for CC/C=N\N1C(N)=C(C#N)C(C#N)(C#N)C1CC (stereo not given) was > 100 µM

Quick note, TGI for O=C(Nc1nn(C(=O)c2cccnc2)c(=O)s1)c1ccc(Cl)cc1 landed at 77.2 µM

Measured TGI, CCC(CO)Nc1nc2c(c(=O)n(C)c(=O)n2C)n1CCO (stereo not given) : > 100 µM

The reported value for CC(=O)Oc1ccn2nc(C)c(Br)c2c1 in terms of TGI is > 100 µM

GET /value?item= OC(CC(O)(C(F)(F)Cl)C(F)(F)Cl)c1ccccc1 (stereo not given) &field=TGI returns > 10 µM

Recorded TGI (molecule NC(=O)c1ccc(Cl)c([N+](=O)[O-])c1 ): > 100 µM

Recorded TGI (molecule CC1=NN2C(=N)/C(=C/c3ccc(F)cc3)C(=O)N=C2S1 ): > 100 µM

TGI in this record for CC/C(=C/c1ccc(OC)cc1OC)[N+](=O)[O-] : 4.73 µM

Record O=C1CC[C@@]23CC(=O)O[C@@H]2CCCC3C1 (stereo not given in full) . Reported TGI: > 100 µM

Summary for this molecule, C[C@H]1C=C2C(=O)O[C@H]3CC[C@@H](C1)[C@@]23O : TGI is 29.3 µM

Reported TGI ( C[C@H]1[C@H](C)CC[C@]2(C(=O)OC3OC(CO)C(O)C(O)C3O)CC[C@]3(C)C(=CC[C@@H]4[C@@]5(C)C[C@@H](O)[C@@H]6OC(=O)c7cc(O)c(O)c(O)c7-c7c(cc(O)c(O)c7O)C(=O)OC[C@@]6(CO)[C@@H]5CC[C@]43C)[C@H]12 (stereo not given in full) ) = > 100 µM

For record NC(=O)c1ccc[n+](C2=C([O-])c3ccccc3C(=O)/C2=N\S(=O)(=O)c2ccccc2)c1 the listed TGI is 28.9 µM

Query CCOC(=O)C1=C(C)NC(c2ccco2)=C(C#N)C1c1cccc([N+](=O)[O-])c1 (stereo not given) yields TGI of 3.43 µM

Reported TGI of COc1ccc2nc3cc(Cl)ccc3c(Nc3cc(CN4CCCC4)c(O)c(CN4CCCC4)c3)c2n1 : 3.24 µM

Item: Cc1cc(S(=O)(=O)N=C2Nc3cccc4cccc(c34)N2)c(S)cc1Cl | TGI: > 100 µM
